STUDY_TARGET: Programmed cell death protein 4 (Homo sapiens) (UniProt Q53EL6)
Sequence (Q53EL6 whole entry): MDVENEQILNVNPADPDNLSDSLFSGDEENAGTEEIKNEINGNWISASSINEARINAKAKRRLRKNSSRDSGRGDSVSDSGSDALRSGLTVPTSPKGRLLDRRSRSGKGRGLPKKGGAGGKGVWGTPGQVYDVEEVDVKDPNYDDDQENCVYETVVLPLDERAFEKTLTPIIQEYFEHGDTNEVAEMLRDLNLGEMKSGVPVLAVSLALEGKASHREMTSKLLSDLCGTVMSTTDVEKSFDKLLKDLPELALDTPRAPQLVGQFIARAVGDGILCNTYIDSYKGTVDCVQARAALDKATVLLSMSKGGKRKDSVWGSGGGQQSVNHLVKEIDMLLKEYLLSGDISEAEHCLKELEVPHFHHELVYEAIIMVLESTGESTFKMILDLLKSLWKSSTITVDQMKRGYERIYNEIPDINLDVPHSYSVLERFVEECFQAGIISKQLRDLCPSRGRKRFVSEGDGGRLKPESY
ASSAY_PROCEDURE: Inhibition of PDCD4 in human HeLa cells tranfected with pCI-neo-luciferase-PDCD4 3'-UTR plasmid assessed as fold change in luciferase signal by measuring relative luciferase unit by luciferase reporter assay; further: test concentration or dose not given here
Assay type: cell-based
QUANTITY: RLU
Lab note: write the figure by itself, no unit.

CHEMICAL_STRING | STUDY_TARGET | RLU
Cc1oc(-c2ccc(OCc3ccccc3)cc2)nc1CCl | Programmed cell death protein 4 (Homo sapiens) (UniProt Q53EL6) | 2.01

Now consider the entry below.
## Input Return the recorded RLU value; entry: COC(=O)[C@@H](C(C)C)N(Cc1nc(-c2ccc(OC)cc2)oc1C)S(=O)(=O)c1ccc(C)cc1
## Output 1.04
